# Tested on: MDA-MB-435
# assayName: NCI tumour cell line growth inhibition, 48 h
Calls of active or inactive are those of the source. Rule as the data show it: active = GI50 up to about 1.1 µM and inactive = higher.
Each entry below lists one item and its recorded GI50 value.
propertyMeasured: GI50

compound | measurement
O=C(O)/C=c1/c2ccccc2n2nc3ccccc3c12 | 31.6 µM (inactive)
O=C1NC(=O)C(C(c2ccc(Cl)cc2)C2C(=O)NC(=O)NC2=O)C(=O)N1.c1ccncc1 | > 100 µM (inactive)
O=C1c2ccccc2C(=O)N1c1ccc(OCCN2CCCCC2)cc1 | > 100 µM (inactive)
N#Cc1c(=O)c2cc([N+](=O)[O-])ccc2n2c1[nH]c1ccccc12 | 10.3 µM (inactive)
CC1(C)C2C=C(CCN3CCOCC3)CC1C2 (centres undefined) | > 100 µM (inactive)
O=C(O)C1=NN(c2ccc(S(=O)(=O)O)cc2)C2(C1)SCC(=O)N2c1nc2ccccc2s1 (centres undefined) | > 100 µM (inactive)
COc1ccc(-c2csc3c2-n2cccc2C3=O)cc1 | 0.0132 µM (active)
O=[N+]([O-])/C(C(Cl)=C(Cl)Cl)=C1\Nc2ccc([N+](=O)[O-])cc2N1 | > 100 µM (inactive)
C[C@H](CCc1nc(C#N)c(N)o1)[C@H]1CC[C@H]2[C@@H]3[C@@H](O)CC4C[C@@H](O)CC[C@]4(C)[C@H]3C[C@@H](O)[C@]12C (some centres undefined) | 22 µM (inactive)
COc1cccc2c1C(=O)c1c(O)c3c(c(O)c1C2=O)CC(O)(C(O)CO)CC3OC1CC2C(OC3COCC(C#N)N32)C(C)O1 (centres undefined) | < 0.01 µM (active)
CCOC(=O)c1csc(NC(=O)CN2CCOCC2)n1 | > 100 µM (inactive)
CC(C)(C)C1CCC2(CC1)CCN(CCCN1CCOCC1)CC2 | 28.2 µM (inactive)
Cc1ccc(C)c(COCCOCn2cc(Br)c(N)nc2=O)c1 | > 100 µM (inactive)
CCCCn1c(C)c(C(=O)OCC)s/c1=N/Nc1nc2ccccc2nc1-c1ccccc1 | > 100 µM (inactive)
CN(C(=O)C12C3(C(=O)O)C4C5(C(=O)O)C3C1(C(=O)O)C5C42C(=O)O)C(C)(C)C (centres undefined) | > 100 µM (inactive)
NCCO/C=C/C(N)C(=O)O (centres undefined) | > 100 µM (inactive)
O=[N+]([O-])c1ccc(C2c3c(O)nc(S)nc3Oc3nc(S)nc(O)c32)cc1 | > 100 µM (inactive)
CNCCCNc1c2ccccc2nc2cccc([N+](=O)[O-])c12 | 0.00166 µM (active)
COCC1OC(Sc2ccccc2)C(O)C(OC)C1OC (centres undefined) | > 100 µM (inactive)
C=CCn1c(S)nnc1C12CC3CC(CC(C3)C1)C2 | 48.9 µM (inactive)
Nn1c(CNc2ccc(-c3nnc(Nc4ccc(Cl)cc4)n3N)cc2)nnc1Nc1ccc(Cl)cc1 | > 100 µM (inactive)
CC1(C)[C@@H]2CC[C@@]1(C)CN(CCC[N+](C)(C)C)C2 | > 100 µM (inactive)
CO[C@@]12C[C@@H](CNC(=O)c3cc(Br)c[nH]3)O[C@@H]1NC(=O)N2 | > 100 µM (inactive)
O=[N+]([O-])c1ccc2c(c1)C1=C(CO2)Cc2ccccc2O1 | 25.6 µM (inactive)
CC(O)C(NC(=O)C(CS)NC(=O)C(CO)NC(=O)C(CCCCN)NC(=O)C(Cc1c[nH]c2ccccc12)NC(=O)C(Cc1ccc(O)cc1)NC(=O)C(CS)NC(=O)C(N)Cc1ccccc1)C(N)=O (centres undefined) | > 25 µM (inactive)
O=C1NC(N2CCOCC2)=N/C1=C\c1ccc(O)cc1 | > 100 µM (inactive)
CC(Br)C(=O)Nc1ccc(C(=O)O)c(O)c1 (centres undefined) | 34.4 µM (inactive)
O=c1[nH]c(=O)n(COCc2ccccc2)c2ccccc12 | > 100 µM (inactive)
Cc1cn2c(C)csc2c1P(=O)(OC(C)C)OC(C)C | > 100 µM (inactive)
CC1OC(OC2C(O[C@H]3CC[C@@]4(C)C(=CC[C@H]5[C@@H]6C[C@@H]7O[C@]8(CC[C@@H](C)CO8)[C@@H](C)[C@@H]7[C@@]6(C)CC[C@@H]54)C3)OC(CO)C(O)C2OC2OC(CO)C(O)C(O)C2O)C(O)C(O)C1O (some centres undefined) | 1.81 µM (inactive)
COc1ccccc1C1c2cc3c(cc2OC(N2CCOCC2)C1C)OCO3 (centres undefined) | 8.04 µM (inactive)
CCCC(=O)NC1CCc2cc(OC)c(OC)c(OC)c2-c2ccc(OC)c(=O)cc21 (centres undefined) | 0.000296 µM (active)
CNCCCNC(=S)Cn1cc(C)c(=O)[nH]c1=O | > 26.1 µM (inactive)
COc1ccc2c(C(=O)c3c(C)n(CCN4CCOCC4)c4ccccc34)cccc2c1 | 5.6 µM (inactive)
NNC(=O)c1cc([N+](=O)[O-])ccc1NC(=O)C12CC3CC(CC(C3)C1)C2 | 14.3 µM (inactive)
CSc1nc(C#N)c(N)n1C | > 100 µM (inactive)
O=C(Nc1ccc(Cl)c(Cl)c1)C(=O)C(C1OC(=O)c2ccccc21)[N+](=O)[O-] (centres undefined) | > 100 µM (inactive)
NC(=O)NC(=O)c1cccc(NC(=O)CI)c1 | < 0.01 µM (active)
CO[C@]12C#CC=CC#C[C@@H](O)[C@]3(CCC1)O[C@@]23c1cccc(O)c1 | > 100 µM (inactive)

---

# Tested on: T47D
# assayName: NCI tumour cell line growth inhibition, 48 h
The source made the active and inactive calls. Rule as the data show it: active = GI50 up to about 1.1 µM and inactive = higher.
Outcome codes: active, inactive

compound | qualitativeLabel
COC(=O)[C@]12CCC(=O)N1[C@H](C(=O)O)Cc1c2[nH]c2ccccc12 | inactive
CO[C@@]12C[C@@H](CNC(=O)c3cc(Br)c[nH]3)O[C@@H]1NC(=O)N2 | inactive
CC(C)=CC1C(COC(=O)c2cc3c(cc2Cl)OCO3)C1(C)C (centres undefined) | inactive
Cc1ccc2c(c1)nc(N)n[n+]2[O-] | inactive
c1ccc2c(Cc3c[nH]c4ccccc34)c[nH]c2c1 | inactive
CCCC(c1cc(C(C)(C)C)c(O)cc1C)c1cc(C(C)(C)C)c(O)cc1C | inactive
Nc1c(-c2ccccc2)c2ccc([N+](=O)[O-])cc2c(=O)n1-c1cccc(C(=O)O)c1 | inactive
N#Cc1c2c(c(Nc3ccc(F)cc3)n3c1nc1ccccc13)CCC2 | inactive
O=C(O)CSCC(=O)Nc1ccc2cccc3c2c1CC3 | inactive
O=C(O)/C=c1/c2ccccc2n2nc3ccccc3c12 | inactive
CCN(CC)Cc1cc(Nc2ccnc3ccc4c(nnn4C)c23)ccc1O | inactive
O=c1[nH]nc(Cc2ccccc2)n1/N=C/c1ccc(/C=N/n2c(Cc3ccccc3)n[nH]c2=O)cc1 | inactive
COc1cc2c(cc1O)C(=O)O[C@@H]1CC=C3CCN(C)[C@H]3[C@H]21 | inactive
N#Cc1c(=O)c2cc([N+](=O)[O-])ccc2n2c1[nH]c1ccccc12 | inactive
CCn1sc2ccccc2c1=O | inactive
O=C1c2ccccc2S(=O)(=O)c2c1cccc2[N+](=O)[O-] | inactive
c1ccc(-c2nc3ccccc3n3c(CN4CCCCC4)nnc23)cc1 | inactive
CCNc1ncnc2nn[nH]c12 | inactive
CC1(C)C(CCO)CC1n1cc(I)c(=O)[nH]c1=O (centres undefined) | inactive
O=C1c2ccccc2C(=O)N1c1ccc(OCCN2CCCCC2)cc1 | inactive
S=C(Nc1ccccc1)c1ccc(CN2CCCCC2)s1 | inactive
Cn1c(CO)ccc1-c1ccc(-c2ccc[se]2)[se]1 | active
CCO[C@]12CCC[C@H]1[C@@H]1C(=O)c3ccccc3C(=O)C1=C(C)O2 | inactive
COc1ccc([N+](=O)[O-])c2c(NCCCN(C)C)c(C)c(C)nc12 | inactive
OC(CC1CCCCN1)c1ccc2c(c1)oc1ccccc12 (centres undefined) | inactive
COc1cc2c(cc1OC)C(Cl)C(c1ccc(Br)cc1)=C2Cl (centres undefined) | inactive
Cc1ccc(C)c(COCCOCn2cc(Br)c(N)nc2=O)c1 | inactive
O=S(=O)(c1cc(Cl)ccc1Cl)N1CCN(S(=O)(=O)c2cc(Cl)ccc2Cl)CC1 | inactive
O=[N+]([O-])/C=C/c1ccc2ccccc2c1 | active
CC1(C)C2C=C(CCN3CCOCC3)CC1C2 (centres undefined) | inactive
O=C(O)C1=NN(c2ccc(S(=O)(=O)O)cc2)C2(C1)SCC(=O)N2c1nc2ccccc2s1 (centres undefined) | inactive
CN(C(=O)C12C3(C(=O)O)C4C5(C(=O)O)C3C1(C(=O)O)C5C42C(=O)O)C(C)(C)C (centres undefined) | inactive
N#C/C(=C\Nc1ccccn1)C(=O)C1CC1 | inactive
O=C(O)CCc1nc2ccccc2[nH]1 | inactive
N#C/C(=C/N1C(=O)/C(=C/c2ccc([N+](=O)[O-])cc2)SC1=S)c1nc2ccccc2s1 | inactive
O=c1[nH]nc(Cc2ccccc2)n1CCCl | inactive
O=C(O)C1C(=O)Oc2c(cccc2[N+](=O)[O-])C1O (centres undefined) | inactive
COc1ccccc1C1c2cc3c(cc2OC(N2CCOCC2)C1C)OCO3 (centres undefined) | inactive
NNC(=O)c1cc([N+](=O)[O-])ccc1NC(=O)C12CC3CC(CC(C3)C1)C2 | inactive
